# Assayed system: High affinity immunoglobulin gamma Fc receptor I (Homo sapiens) (UniProt P12314)
# Sequence (P12314 whole entry): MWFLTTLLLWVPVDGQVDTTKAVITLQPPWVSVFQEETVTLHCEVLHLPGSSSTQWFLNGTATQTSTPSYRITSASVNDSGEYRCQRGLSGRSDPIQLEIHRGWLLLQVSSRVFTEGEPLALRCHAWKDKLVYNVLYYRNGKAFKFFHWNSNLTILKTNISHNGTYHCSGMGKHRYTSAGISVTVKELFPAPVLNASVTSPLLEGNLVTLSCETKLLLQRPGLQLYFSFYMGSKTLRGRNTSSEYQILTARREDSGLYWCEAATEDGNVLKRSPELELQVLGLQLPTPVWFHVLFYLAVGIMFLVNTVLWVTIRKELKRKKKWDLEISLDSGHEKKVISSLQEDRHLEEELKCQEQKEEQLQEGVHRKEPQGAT
# Test: Inhibition of FCgamma receptor in human PBMC assessed as inhibition of opsonized RBC phagocytosis at 5 uM incubated for 1 hr prior to RBC addition measured after 2 hrs by monocyte monolayer assay relative to control
Please respond with reported inhibition for every item in the list.

Give inhibition for `Cc1nn(-c2ccccc2)c(SSc2c(C(=O)N3CCOCC3)c(C)nn2-c2ccccc2)c1C(=O)N1CCOCC1` tested on High affinity immunoglobulin gamma Fc receptor I (Homo sapiens) (UniProt P12314). 20%

Give inhibition for `Cc1nn(-c2ccccc2)c(SSc2c(C(=O)c3ccccc3)c(C)nn2-c2ccccc2)c1C(=O)c1ccccc1` tested on High affinity immunoglobulin gamma Fc receptor I (Homo sapiens) (UniProt P12314). 22%

Give inhibition for `Cc1nn(-c2ccccc2)c(SSc2c(C(=O)c3cccs3)c(C)nn2-c2ccccc2)c1C(=O)c1cccs1` tested on High affinity immunoglobulin gamma Fc receptor I (Homo sapiens) (UniProt P12314). 19%

Give inhibition for `Cc1nn(-c2ccccc2)c(S)c1C(=O)c1ccccc1` tested on High affinity immunoglobulin gamma Fc receptor I (Homo sapiens) (UniProt P12314). 0%

Give inhibition for `Cc1cc(SSc2cc(C)nn2-c2ccccc2)n(-c2ccccc2)n1` tested on High affinity immunoglobulin gamma Fc receptor I (Homo sapiens) (UniProt P12314). 43%

Give inhibition for `Cc1nn(-c2ccccc2)c(SSc2c(C(=O)N3CCCCC3)c(C)nn2-c2ccccc2)c1C(=O)N1CCCCC1` tested on High affinity immunoglobulin gamma Fc receptor I (Homo sapiens) (UniProt P12314). 34%

###

# System: PBMC
# Test: Induction of apoptosis in human PBMC at 5 uM assessed as apoptotic index after 1 hr by Annexin V-APC/propidium iodide staining-based FACS analysis relative to IVIG
# Type: functional
Measurement name: fold change (FC)
In your answer, state the number alone without any accompanying words.

Give fold change (FC) for the following compound: `Cc1nn(-c2ccccc2)c(S)c1C(=O)c1ccccc1` 1.29

Give fold change (FC) for the following compound: `Cc1nn(-c2ccccc2)c(SSc2c(C(=O)N3CCOCC3)c(C)nn2-c2ccccc2)c1C(=O)N1CCOCC1` 1.88

Give fold change (FC) for the following compound: `Cc1nn(-c2ccccc2)c(SSc2c(C(=O)c3cccs3)c(C)nn2-c2ccccc2)c1C(=O)c1cccs1` 0.69

Give fold change (FC) for the following compound: `Cc1cc(SSc2cc(C)nn2-c2ccccc2)n(-c2ccccc2)n1` 2.78

Give fold change (FC) for the following compound: `Cc1nn(-c2ccccc2)c(SSc2c(C(=O)N3CCCCC3)c(C)nn2-c2ccccc2)c1C(=O)N1CCCCC1` 1.87

Give fold change (FC) for the following compound: `Cc1nn(-c2ccccc2)c(SSc2c(C(=O)c3ccccc3)c(C)nn2-c2ccccc2)c1C(=O)c1ccccc1` 1.04

Origin of measurements: ChEMBL document CHEMBL2375223
